- system-tested: Steroidogenic factor 1 (Homo sapiens)
- protocol: SF1 (NR5A1) inverse agonists, counter-screen for LRH-1 inverse agonist project, cell-based, luminescence, high throughput (AID 651614);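 note: cells cotransfected with StAR promoter reporter and SF1 expression vector; 0% = vehicle on cells with receptor and 100% = vehicle on cells lacking receptor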
- assay-conditions: cell-based SF1 luciferase reporter, at 3.6 µM, stronger effect = higher value
Active and inactive are the calls of the source. Cut-off read from the data, not from the text of the source: active = inhibition above about 44%; inactive = the rest.

{"molecule": "Nc1nc(N)c2c(ccc3c2ccn3Cc2cccc([N+](=O)[O-])c2)n1", "inhibition": "67.4% (active)"}
{"molecule": "Cc1cc(C(=O)COC(=O)c2ccccc2O)c(C)n1Cc1cccs1", "inhibition": "80.2% (active)"}
{"molecule": "O=C(CN(Cc1ccccc1)C(=O)CCl)c1cccc(Br)c1", "inhibition": "51.8% (active)"}
{"molecule": "N=c1c2c(n(Cc3ccc(F)cc3)c3c1CCC3)CCC2", "inhibition": "69% (active)"}
{"molecule": "Cc1cc(C)c[n+](C(C)C(=O)c2ccc(-c3ccccc3)cc2)c1 (stereo not given)", "inhibition": "66.4% (active)"}
{"molecule": "CCC(=O)N1CCN(c2ccc(NC(=O)c3ccc([N+](=O)[O-])o3)cc2Cl)CC1", "inhibition": "58.2% (active)"}
{"molecule": "CC1(C(=O)NCc2ccc3c(c2)OCO3)CCN1C(=O)Cc1ccc(Cl)cc1Cl (stereo not given)", "inhibition": "47% (active)"}
{"molecule": "CCc1ccccc1Nc1nn2c(=O)c3ccc(C(=O)NCc4ccccn4)cc3nc2s1", "inhibition": "76% (active)"}
{"molecule": "COc1cccc(-c2cc(NC=O)c3ncc(-c4ccc(C(C)=O)cc4)n3c2)c1", "inhibition": "60.1% (active)"}
{"molecule": "CCOc1ccc(CCNC(=O)COC(=O)c2cc([N+](=O)[O-])ccc2N2CCOCC2)cc1OCC", "inhibition": "56.6% (active)"}
